Test System: MAGL (Mus musculus)
Construct: Proteomes (mouse brain membrane fraction or cell lysates); from tissue; host or cells: mouse brain membrane fraction or cell lysates
Sequence (O35678 whole entry): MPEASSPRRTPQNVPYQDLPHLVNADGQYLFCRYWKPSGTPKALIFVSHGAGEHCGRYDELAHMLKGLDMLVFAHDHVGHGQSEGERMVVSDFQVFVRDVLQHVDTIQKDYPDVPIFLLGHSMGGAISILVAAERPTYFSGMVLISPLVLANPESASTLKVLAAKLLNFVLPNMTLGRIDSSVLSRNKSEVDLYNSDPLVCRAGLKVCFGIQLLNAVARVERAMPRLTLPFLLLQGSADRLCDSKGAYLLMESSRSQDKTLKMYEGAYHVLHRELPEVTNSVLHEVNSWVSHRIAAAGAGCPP
Assay Summary: Mouse brain proteomes from inhibitor treated mice, MAGL inhibition
Type: in vivo
Condition Label: 5 mg/kg oral gavage, C57Bl/6J mouse brain, 4 h following administration; read-out: MAGL % inh. 5 mg/kg (mouse)
Outcome Measure: inhibition at 5 mg/kg

The reported inhibition at 5 mg/kg value, MAGL (Mus musculus), for O=C(O)CN1CCN(c2cc(C(F)(F)F)ccc2CN2CCN(C(=O)OC(C(F)(F)F)C(F)(F)F)CC2)CC1 [Example 42] reads 25 to 50%

====

Test System: MAGL (Homo sapiens, UniProt Q99685)
Construct: Proteomes (human prefrontal cortex or cell membrane fractions); from tissue
Sequence (Q99685 whole entry): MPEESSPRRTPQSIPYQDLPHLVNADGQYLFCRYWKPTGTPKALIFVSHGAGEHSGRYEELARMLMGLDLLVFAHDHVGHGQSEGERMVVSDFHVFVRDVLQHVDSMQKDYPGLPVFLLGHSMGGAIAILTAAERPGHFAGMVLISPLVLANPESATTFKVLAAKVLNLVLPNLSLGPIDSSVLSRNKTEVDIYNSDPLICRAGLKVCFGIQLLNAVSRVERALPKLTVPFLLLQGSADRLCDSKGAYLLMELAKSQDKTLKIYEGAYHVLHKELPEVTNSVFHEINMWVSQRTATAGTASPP
Assay Summary: In vitro competitive activity-based protein profiling (human), MAGL
Format: biochemical
Condition Label: human PC3
Outcome Measure: IC50

For orientation, consider the following solved cases.
{"columns": ["Molecule", "Test System", "Result"],
 "data": [
  ["O=C(OC(C(F)(F)F)C(F)(F)F)N1CCN(Cc2ccc(C(F)(F)F)cc2C2(C(=O)O)CCOCC2)CC1", "MAGL (Homo sapiens, UniProt Q99685)", "≤ 0.1 µM"],
  ["CCCC1(C(=O)O)CCN(c2cc(CN3CCN(C(=O)OC(C(F)(F)F)C(F)(F)F)CC3)cc(C(F)(F)F)c2)CC1", "MAGL (Homo sapiens, UniProt Q99685)", "≤ 0.1 µM"],
  ["CC1(C(=O)O)CN(c2cc(C(F)(F)F)ccc2CN2CCN(C(=O)OC(C(F)(F)F)C(F)(F)F)CC2)CCO1 (stereo not shown)", "MAGL (Homo sapiens, UniProt Q99685)", "≤ 0.1 µM"]
]}

Value of measured IC50 for the entry `O=C(O)c1ccsc1-c1cc(C(F)(F)F)ccc1CN1CCN(C(=O)OC(C(F)(F)F)C(F)(F)F)CC1` : ≤ 0.1 µM

====

Test System: MAGL (Homo sapiens)
Construct: Proteomes (human prefrontal cortex or cell membrane fractions); from tissue
Assay Summary: In vitro competitive activity-based protein profiling (human), MAGL
Format: biochemical
Condition Label: 1 μM inhibitor, human proteome, 30 min preincubation at 37° C; read-out: MAGL % inh. 1 μM (human)
inhibition at 1 µM values, listed per item

For orientation, consider the following solved cases.
{"columns": ["Cpd Smiles", "Test System", "Outcome Measure", "Result"],
 "data": [
  ["O=C(O)CN1CC2(CCN(c3cc(C(F)(F)F)ccc3CN3CCN(C(=O)OC(C(F)(F)F)C(F)(F)F)CC3)CC2)C1", "MAGL (Homo sapiens)", "inhibition at 1 µM", "≥ 75%"],
  ["O=C(O)[C@@H]1CCCN1C1CCN(c2cc(C(F)(F)F)ccc2CN2CCN(C(=O)OC(C(F)(F)F)C(F)(F)F)CC2)CC1", "MAGL (Homo sapiens)", "inhibition at 1 µM", "≥ 75%"]
]}

Then there is this compound:
Value of measured inhibition at 1 µM for the entry `O=C(O)C1CCN(c2cc(S(F)(F)(F)(F)F)ccc2CN2CCN(C(=O)OC(C(F)(F)F)C(F)(F)F)CC2)CC1` : ≥ 75%

====

inhibition at 1 µM values, listed per item
Test System: ABHD6 (Mus musculus, UniProt Q8R2Y0)
Construct: Proteomes (mouse brain membrane fraction or cell lysates); from tissue; host or cells: mouse brain membrane fraction or cell lysates
Sequence (Q8R2Y0 1-336): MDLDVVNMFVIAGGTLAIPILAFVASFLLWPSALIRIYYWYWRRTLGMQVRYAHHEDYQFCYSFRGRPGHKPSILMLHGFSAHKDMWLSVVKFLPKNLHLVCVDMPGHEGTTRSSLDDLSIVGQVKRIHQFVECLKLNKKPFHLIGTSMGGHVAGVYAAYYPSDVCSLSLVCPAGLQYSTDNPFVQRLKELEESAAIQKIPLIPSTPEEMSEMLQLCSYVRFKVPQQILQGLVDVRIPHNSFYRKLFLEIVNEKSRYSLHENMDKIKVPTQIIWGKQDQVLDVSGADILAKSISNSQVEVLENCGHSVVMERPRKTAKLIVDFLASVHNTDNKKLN
Assay Summary: In vitro competitive activity-based protein profiling (mouse), ABHD6
Assay type: biochemical
Condition Label: 1 μM inhibitor, mouse brain membrane fraction or cell lysates; read-out: ABHD6 % inh. 1 μM (mouse)

Value of measured inhibition at 1 µM for the entry `O=C(O)CN1CC2(CCN(c3cc(Cl)ccc3CN3CCN(C(=O)OC(C(F)(F)F)C(F)(F)F)CC3)CC2)C1` : 0 to 25%

Value of measured inhibition at 1 µM for the entry `O=C(O)CN1CCC2(CC1)CN(c1cc(C(F)(F)F)ccc1CN1CCN(C(=O)OC(C(F)(F)F)C(F)(F)F)CC1)C2` : 0 to 25%

Value of measured inhibition at 1 µM for the entry `O=C(O)CN1CCC2(CC1)CCN(c1cc(C(F)(F)F)ccc1CN1CCN(C(=O)OC(C(F)(F)F)C(F)(F)F)CC1)C2` : 0 to 25%

Value of measured inhibition at 1 µM for the entry O=C(O)C1COCCN1c1cc(C(F)(F)F)ccc1CN1CCN(C(=O)OC(C(F)(F)F)C(F)(F)F)CC1 (stereo not shown) : 0 to 25%

Value of measured inhibition at 1 µM for the entry CC1(C(=O)O)CCCN(c2cc(CN3CCN(C(=O)OC(C(F)(F)F)C(F)(F)F)CC3)cc(C(F)(F)F)c2)C1 (stereo not shown) : 0 to 25%

Value of measured inhibition at 1 µM for the entry O=C(O)[C@@H]1CC(c2cc(C(F)(F)F)ccc2CN2CCN(C(=O)OC(C(F)(F)F)C(F)(F)F)CC2)CN1 (stereo partly shown) : 25 to 50%

Value of measured inhibition at 1 µM for the entry `O=C(O)C1CCN(c2c(CN3CCN(C(=O)OC(C(F)(F)F)C(F)(F)F)CC3)cccc2C(F)(F)F)CC1` : ≥ 75%

====

Test System: MAGL (Homo sapiens, UniProt Q99685)
Construct: Proteomes (human prefrontal cortex or cell membrane fractions); from tissue
Assay Summary: In vitro competitive activity-based protein profiling (human), MAGL
Type: biochemical
Condition Label: human PC3
IC50 values, listed per item

For orientation, consider the following solved cases.
{"columns": ["Compound", "Result"],
 "data": [
  ["O=C(O)CN1CCC2(C1)CN(c1cc(C(F)(F)F)ccc1CN1CCN(C(=O)OC(C(F)(F)F)C(F)(F)F)CC1)C2", "≤ 0.1 µM"],
  ["O=C(O)C1CCN(c2cc(S(F)(F)(F)(F)F)ccc2CN2CCN(C(=O)OC(C(F)(F)F)C(F)(F)F)CC2)CC1", "≤ 0.1 µM"],
  ["CC1(NCC(=O)O)CCN(c2cc(C(F)(F)F)ccc2CN2CCN(C(=O)OC(C(F)(F)F)C(F)(F)F)CC2)CC1", "≤ 0.1 µM"]
]}

Value of measured IC50 for the entry `O=C(O)C1CCN(c2cc(OC(F)(F)F)ccc2CN2CCN(C(=O)OC(C(F)(F)F)C(F)(F)F)CC2)CC1` : ≤ 0.1 µM

Value of measured IC50 for the entry `O=C(O)CC1CCN(c2cc(C(F)(F)F)ccc2CN2CCN(C(=O)OC(C(F)(F)F)C(F)(F)F)CC2)CC1` : ≤ 0.1 µM

Value of measured IC50 for the entry `O=C(O)CN1CCC2(CCN(c3cc(C(F)(F)F)ccc3CN3CCN(C(=O)OC(C(F)(F)F)C(F)(F)F)CC3)CC2)C1` : ≤ 0.1 µM

Value of measured IC50 for the entry `O=C(O)Cn1cc(-c2cc(C(F)(F)F)ccc2CN2CCN(C(=O)OC(C(F)(F)F)C(F)(F)F)CC2)cn1` : ≤ 0.1 µM

Value of measured IC50 for the entry `O=C(O)C1CCN(C(=O)c2cc(CN3CCN(C(=O)OC(C(F)(F)F)C(F)(F)F)CC3)ccc2C(F)(F)F)CC1` : ≤ 0.1 µM

Value of measured IC50 for the entry O=C(O)C1COCCN1c1cc(CN2CCN(C(=O)OC(C(F)(F)F)C(F)(F)F)CC2)cc(C(F)(F)F)c1 (centres unmarked) : ≤ 0.1 µM

Value of measured IC50 for the entry `N#Cc1ccc(CN2CCN(C(=O)OC(C(F)(F)F)C(F)(F)F)CC2)c(N2CCC(C(=O)O)CC2)c1` : ≤ 0.1 µM

Value of measured IC50 for the entry `O=C(O)CN1CCCC12CN(c1cc(C(F)(F)F)ccc1CN1CCN(C(=O)OC(C(F)(F)F)C(F)(F)F)CC1)C2` : ≤ 0.1 µM

Value of measured IC50 for the entry CC1(C(=O)O)CCCN(c2cc(CN3CCN(C(=O)OC(C(F)(F)F)C(F)(F)F)CC3)cc(C(F)(F)F)c2)C1 (centres unmarked) : ≤ 0.1 µM

Value of measured IC50 for the entry `O=C(OC(C(F)(F)F)C(F)(F)F)N1CCN(Cc2ccc(C(F)F)cc2C2(C(=O)O)CCCC2)CC1` : ≤ 0.1 µM

Value of measured IC50 for the entry CC1(C(=O)O)CCN(c2cc(C(F)(F)F)ccc2CN2CCN(C(=O)OC(C(F)(F)F)C(F)(F)F)CC2)C1 (centres unmarked) : ≤ 0.1 µM
